test system: Caco-2; test: cell viability relative to DMSO; higher = less toxic; settings: 72 h; 1000 nM
parameterMeasured: cell viability (%)
Only the number, expressed in %, is required.

In the examples that follow, each entry is paired with its recorded cell viability.
[
  {
    "compound": "CS[C@H]1SC[C@H]2C(=O)N(C)[C@@H](C(C)C)C(=O)OC[C@@H](NC(=O)c3cnc4ccccc4n3)C(=O)N[C@@H](C)C(=O)N(C)[C@@H]1C(=O)N(C)[C@@H](C(C)C)C(=O)OC[C@@H](NC(=O)c1cnc3ccccc3n1)C(=O)N[C@@H](C)C(=O)N2C",
    "cell viability [%]": 63.2
  },
  {
    "compound": "Fc1ccc(-c2cncc(CN3CCN(c4cccc5c4OCCO5)CC3)c2)cc1",
    "cell viability [%]": 109
  },
  {
    "compound": "N#Cc1ccc(N2CCN(C(=O)COc3ccc4[nH]cc(CCN)c4c3)CC2)cc1",
    "cell viability [%]": 97.1
  },
  {
    "compound": "CC1(C)[C@@H](OC(=O)CCC(=O)O)CC[C@]2(C)[C@H]3C(=O)C=C4[C@@H]5C[C@@](C)(C(=O)O)CC[C@]5(C)CC[C@@]4(C)[C@]3(C)CC[C@@H]12 [CARBENOXOLONE SODIUM]",
    "cell viability [%]": 99.1
  },
  {
    "compound": "CC[C@@]1(O)C(=O)OCc2c1cc1n(c2=O)Cc2cc3c(CN(C)C)c(O)ccc3nc2-1",
    "cell viability [%]": 58.6
  },
  {
    "compound": "CCCCNc1ncc2c(-c3ccc(CN4CCN(C)CC4)cc3)cn([C@H]3CC[C@H](O)CC3)c2n1",
    "cell viability [%]": 95.5
  }
]

Now for another entry.
Incoming: Which cell viability reading was recorded for the compound CCCCCCOC(=O)NC(=N)c1ccc(NCc2nc3cc(C(=O)N(CCC(=O)OCC)c4ccccn4)ccc3n2C)cc1 [dabigatran-etexilate] ?
Outgoing: 93.8

====

tested on: U2OS; assay: cell viability relative to DMSO; higher = less toxic; details: 72 h; 1 nM
Documented cell viability across a set of compounds
Only the number, expressed in %, is required.

In the examples that follow, each entry is paired with its recorded cell viability.
[
  {
    "compound": "N=C(N)Nc1ccc(Cl)cc1 [4-chlorophenylguanidine]",
    "unitAbbreviation": "%",
    "cell viability": 102
  },
  {
    "compound": "CC(C)C[C@H](CN)CC(=O)O [PREGABALIN]",
    "unitAbbreviation": "%",
    "cell viability": 94.5
  },
  {
    "compound": "Cc1ccc(-n2nc(C(C)(C)C)cc2NC(=O)Nc2ccc(OCCN3CCOCC3)c3ccccc23)cc1 [doramapimod]",
    "unitAbbreviation": "%",
    "cell viability": 98.6
  },
  {
    "compound": "CCCNC(C)(C)COC(=O)c1ccccc1 [meprylcaine]",
    "unitAbbreviation": "%",
    "cell viability": 98.6
  },
  {
    "compound": "OC1=c2ccccc2=C(NC2CCCCC2)/C1=C\\c1ccccc1",
    "unitAbbreviation": "%",
    "cell viability": 98.9
  }
]

Incoming: What is its cell viability for U2OS? Entry: O=C(Nc1cc(C(F)(F)F)cc(C(F)(F)F)c1)c1cc(Cl)ccc1O [IKK-2-inhibitor-V]
Outgoing: 95.7

Incoming: What is its cell viability for U2OS? Entry: O=C(O)C[C@H](O)C[C@H](O)/C=C/c1c(C2CC2)nc2ccccc2c1-c1ccc(F)cc1 [pitavastatin]
Outgoing: 98.7

Incoming: What is its cell viability for U2OS? Entry: Cc1cccc(Oc2nc3c(C)cccn3c(=O)c2/C=C(\C#N)c2nc3ccccc3s2)c1
Outgoing: 95.2

Incoming: What is its cell viability for U2OS? Entry: CC(C)N(CC[C@H](c1ccccc1)c1cc(CO)ccc1O)C(C)C [5-hydroxymethyl-tolterodine]
Outgoing: 101

Incoming: What is its cell viability for U2OS? Entry: CC(=O)CCCCn1c(=O)c2c(ncn2C)n(C)c1=O [pentoxifylline]
Outgoing: 101

Incoming: What is its cell viability for U2OS? Entry: CC1CCN(CC[C@H]2CCCN2S(=O)(=O)c2cccc(O)c2)CC1
Outgoing: 94.3

Incoming: What is its cell viability for U2OS? Entry: Nc1ccc(S(=O)(=O)Nc2ccnn2-c2ccccc2)cc1 [sulfaphenazole]
Outgoing: 97.4

Incoming: What is its cell viability for U2OS? Entry: O=C(Nc1cccnn1)N1CCC(=Cc2cccc(Oc3ccc(C(F)(F)F)cn3)c2)CC1
Outgoing: 94.3

Incoming: What is its cell viability for U2OS? Entry: Cc1nccn1CCC(C(N)=O)(c1ccccc1)c1ccccc1 [imidafenacin]
Outgoing: 99

Incoming: What is its cell viability for U2OS? Entry: CC(NCCc1ccc(O)cc1)C(O)c1ccc(O)cc1 (stereo unspecified) [ritodrine]
Outgoing: 96.9

Incoming: What is its cell viability for U2OS? Entry: CCN[C@H]1C[C@H](C)S(=O)(=O)c2sc(S(N)(=O)=O)cc21 [dorzolamide]
Outgoing: 95.2

Incoming: What is its cell viability for U2OS? Entry: COc1ccc(-c2nc(-c3ccc(-c4cccc(Cl)c4)o3)[nH]c2-c2ccc(OC)cc2)cc1 [neurodazine]
Outgoing: 100

Incoming: What is its cell viability for U2OS? Entry: CCCC(=O)Nc1ccc(OCC(O)CNC(C)C)c(C(C)=O)c1 (stereo unspecified) [acebutolol]
Outgoing: 90.4

Incoming: What is its cell viability for U2OS? Entry: Cc1cc(N)c2ccccc2[n+]1CCCCCCCCCC[n+]1c(C)cc(N)c2ccccc21 [dequalinium]
Outgoing: 104

Incoming: What is its cell viability for U2OS? Entry: CNCC(=O)O [sarcosine]
Outgoing: 96.1

Incoming: What is its cell viability for U2OS? Entry: O=C(Nc1ccccc1F)N[C@H]1N=C(c2ccccc2)c2ccccc2NC1=O [RSV604]
Outgoing: 98.5

====

test system: U2OS; test: cell viability relative to DMSO; higher = less toxic; settings: 72 h; 1000 nM
Documented cell viability across a set of compounds
Only the number, expressed in %, is required.

In the examples that follow, each entry is paired with its recorded cell viability.
[
  {
    "compound": "OC(CNCC(O)C1CCc2cc(F)ccc2O1)C1CCc2cc(F)ccc2O1 (stereo not drawn)",
    "measurementTarget": "U2OS",
    "parameterMeasured": "cell viability",
    "unitAbbreviation": "%",
    "dataValue": 99.8
  },
  {
    "compound": "CCn1c(=O)c(-c2ccc(Cl)cc2Cl)cc2cnc(Nc3ccc(N4CCNCC4)c(F)c3)nc21",
    "measurementTarget": "U2OS",
    "parameterMeasured": "cell viability",
    "unitAbbreviation": "%",
    "dataValue": 91.6
  },
  {
    "compound": "CCOCOC[C@H](C[C@H](C)C(=O)NO)NC(=O)c1ccc(Oc2ccccc2)cc1",
    "measurementTarget": "U2OS",
    "parameterMeasured": "cell viability",
    "unitAbbreviation": "%",
    "dataValue": 104
  },
  {
    "compound": "Cn1ncc(Cl)c1-c1cc(C(=O)N[C@H](CN)Cc2ccc(F)c(F)c2)oc1Cl",
    "measurementTarget": "U2OS",
    "parameterMeasured": "cell viability",
    "unitAbbreviation": "%",
    "dataValue": 96.5
  },
  {
    "compound": "CC[C@H]1[C@@H](O)[C@@H]2[C@H](CC[C@]3(C)[C@@H]([C@H](C)CCOS(=O)(=O)O)CC[C@@H]23)[C@@]2(C)CC[C@@H](O)C[C@@H]12",
    "measurementTarget": "U2OS",
    "parameterMeasured": "cell viability",
    "unitAbbreviation": "%",
    "dataValue": 101
  },
  {
    "compound": "COC(=O)c1cnn(-c2ccc(F)cc2F)c1/C=N/NC(=S)NC(C)(C)C",
    "measurementTarget": "U2OS",
    "parameterMeasured": "cell viability",
    "unitAbbreviation": "%",
    "dataValue": 98
  }
]

Incoming: Which cell viability reading was recorded for the compound CN(C)CCC(c1ccc(Br)cc1)c1ccccn1 (stereo not drawn) ?
Outgoing: 97.6

Incoming: Which cell viability reading was recorded for the compound CC(=O)Nc1ccc(C(=O)O)cc1 ?
Outgoing: 98

Incoming: Which cell viability reading was recorded for the compound NC(=O)C(c1ccccc1)(c1ccc(F)cc1)c1ccc(F)cc1 ?
Outgoing: 98.8

Incoming: Which cell viability reading was recorded for the compound CC(C)N(CC[C@H](c1ccccc1)c1cc(CO)ccc1O)C(C)C [5-hydroxymethyl-tolterodine] ?
Outgoing: 91.8

Incoming: Which cell viability reading was recorded for the compound C[C@]1(O)C[C@@H](c2nc(-c3ccc4ccc(-c5ccccc5)nc4c3)c3c(N)nccn32)C1 ?
Outgoing: 82.4

Incoming: Which cell viability reading was recorded for the compound CN(C(=O)Cc1ccc(Cl)c(Cl)c1)[C@H](CN1CCCC1)c1ccccc1 ?
Outgoing: 106

Incoming: Which cell viability reading was recorded for the compound O=C(CCc1ccc(O)cc1)c1c(O)cc(O)cc1O[C@@H]1O[C@H](CO)[C@@H](O)[C@H](O)[C@H]1O ?
Outgoing: 104

Incoming: Which cell viability reading was recorded for the compound C[C@H](Oc1cc(-c2cnn(C3CCNCC3)c2)cnc1N)c1c(Cl)ccc(F)c1Cl [crizotinib-(S)] ?
Outgoing: 96

Incoming: Which cell viability reading was recorded for the compound O=C(Nc1cccc(Cl)c1)c1ccccn1 ?
Outgoing: 108

Incoming: Which cell viability reading was recorded for the compound C[C@]12CC[C@@H]3c4ccc(O)cc4CC[C@H]3[C@@H]1CC[C@@H]2OC(=O)CCC1CCCC1 [estradiol-cypionate] ?
Outgoing: 100

Incoming: Which cell viability reading was recorded for the compound CN(C)C(=O)n1nnnc1Cc1ccc(-c2ccccc2)cc1 ?
Outgoing: 104

Incoming: Which cell viability reading was recorded for the compound O=C(O)c1ccc(OCCn2ccnc2)cc1 ?
Outgoing: 91.4
